Exercise: state measured inhibition at 10 μM for each of the molecules provided.
biological target: CYP 2C8 (Homo sapiens); construct: from tissue; host or cells: human liver microsomes; test: CYP inhibition in human liver microsomes, 2C8; type: in vitro ADME; details: pH 7.4, @ 10 μM concn
Sequence (P10632 whole entry): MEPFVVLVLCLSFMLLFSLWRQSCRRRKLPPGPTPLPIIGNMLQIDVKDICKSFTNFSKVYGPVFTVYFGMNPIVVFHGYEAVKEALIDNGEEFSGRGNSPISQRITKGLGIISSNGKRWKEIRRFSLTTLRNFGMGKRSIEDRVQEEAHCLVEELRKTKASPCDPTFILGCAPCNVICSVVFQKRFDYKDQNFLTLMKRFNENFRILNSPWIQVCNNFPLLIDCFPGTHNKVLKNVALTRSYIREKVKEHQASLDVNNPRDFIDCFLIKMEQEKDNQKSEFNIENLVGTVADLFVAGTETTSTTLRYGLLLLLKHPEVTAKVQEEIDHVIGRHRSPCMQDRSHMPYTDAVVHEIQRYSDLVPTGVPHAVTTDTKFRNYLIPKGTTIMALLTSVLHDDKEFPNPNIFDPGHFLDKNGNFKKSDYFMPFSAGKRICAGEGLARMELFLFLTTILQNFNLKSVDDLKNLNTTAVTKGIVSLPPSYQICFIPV

What inhibition at 10 μM value was documented for this molecule, C=CC(=O)N1CC2CC(n3nc(-c4ccc(C(=O)Nc5ccccn5)cc4)c4c(N)ncnc43)CC2C1 (stereo not drawn) ?
< 50%

Endpoint output: inhibition at 10 μM of Cc1ccnc(NC(=O)c2ccc(-c3nn(C4CC5CN(C(=O)/C=C/CN(C)C)CC5C4)c4ncnc(N)c34)cc2)c1 (stereo not drawn) . Value?
< 50%

Requested read-out: inhibition at 10 μM. Entry: C=CC(=O)N1CC2CC(n3nc(-c4ccc5nc(Oc6ccccc6)sc5c4)c4c(N)ncnc43)CC2C1 (stereo not drawn)
> 50%

For the molecule CN(C)C/C=C/C(=O)N1CC2CC(n3nc(-c4ccc(-c5nnc(-c6cnccn6)s5)cc4)c4c(N)ncnc43)CC2C1 (stereo not drawn) , what inhibition at 10 μM is on record?
> 50%

// returns reported inhibition at 10 μM for input C=CC(=O)N1CC2CC(n3nc(-c4ccc(NC(=O)c5cnccn5)cc4)c4c(N)ncnc43)CC2C1 (stereo not drawn)
< 50%

Entry under review: C=CC(=O)N1CC2CC(n3nc(-c4ccc5c(c4)OCO5)c4c(N)ncnc43)CC2C1 (stereo not drawn) . Reported inhibition at 10 μM?
< 50%

Quick check: inhibition at 10 μM of C=CC(=O)N1CC2CC(n3nc(-c4ccc(C(=O)N(C)c5cc(C)ccn5)cc4)c4c(N)ncnc43)CC2C1 (stereo not drawn) ?
< 50%

Suppose we examine the molecule CN(C)C/C=C/C(=O)N1CC2CC(n3nc(-c4ccc(Oc5ccccn5)cc4)c4c(N)ncnc43)CC2C1 (stereo not drawn) ; what inhibition at 10 μM value has been reported?
< 50%

// inhibition at 10 μM lookup, key: C=CC(=O)N1CC2CC(n3nc(-c4ccc(C(=O)Nc5cc(C)ccn5)cc4)c4c(N)ncnc43)CC2C1 (stereo not drawn)
< 50%

Any idea what inhibition at 10 μM was measured for C=CC(=O)N1CC2CC(n3nc(-c4ccc(/C(=N/c5cc(C)ccn5)OC)cc4)c4c(N)ncnc43)CC2C1 (stereo not drawn) ?
< 50%

So what does the record say about inhibition at 10 μM for C#CC(=O)N1CC2CC(n3nc(-c4ccc(Oc5ccccc5)cc4)c4c(N)ncnc43)CC2C1 (stereo not drawn) ?
< 50%

Can you look up the measured inhibition at 10 μM of C=CC(=O)N1CC2CC(n3nc(-c4ccc(-c5nnc(-c6ccccn6)o5)cc4)c4c(N)ncnc43)CC2C1 (stereo not drawn) for me?
< 50%

Please report the recorded inhibition at 10 μM for C=CC(=O)N1CC2CC(n3nc(-c4ccc(C(=O)Nc5cc(C)ccn5)c(OC)c4)c4c(N)ncnc43)CC2C1 (stereo not drawn) .
< 50%

Entry C=CC(=O)N1CC2CC(n3nc(-c4ccc5nc(NC(C)=O)sc5c4)c4c(N)ncnc43)CC2C1 (stereo not drawn) has what inhibition at 10 μM?
> 50%

Consider the molecule C=CC(=O)N1CC2CC(n3nc(-c4ccc5c(c4)OC(F)(F)O5)c4c(N)ncnc43)CC2C1 (stereo not drawn) and give its measured inhibition at 10 μM.
< 50%

* * *

tested on: CIA Arthritis Model; test: Collagen induced arthritis (CIA) study in mice; type: in vivo; settings: Dose: 10 mpk, po, Mean ± SD, n = 8
measure: % inhibition of clinical score, Day-28, in CIA Arthritis Model

# get_value(readout='% inhibition of clinical score, Day-28, in CIA Arthritis Model', item= C=CC(=O)N1CC2CC(n3nc(-c4ccc(NC(=O)c5ccccn5)cc4)c4c(N)ncnc43)CC2C1 (centres unmarked) )
100 ± 3.9%

Fill in: % inhibition of clinical score, Day-28, in CIA Arthritis Model of C=CC(=O)N1CC2CC(N3C(=O)N(c4ccc(Oc5ccccc5)cc4)C4C(N)=NC=NC43)CC2C1 (centres unmarked) is ___
90.1 ± 6.3%

# query: % inhibition of clinical score, Day-28, in CIA Arthritis Model of entry C=CC(=O)N1CC2CC(n3nc(-c4ccc(C(=O)Nc5cc(C)ccn5)cn4)c4c(N)ncnc43)CC2C1 (centres unmarked)
100 ± 4.2%

Please give the measured % inhibition of clinical score, Day-28, in CIA Arthritis Model for this compound: C=CC(=O)N1CC2CC(n3nc(-c4ccc(-c5nnc(-c6cnccn6)s5)cc4)c4c(N)ncnc43)CC2C1 (centres unmarked)
88 ± 7.1%

Returns the measured % inhibition of clinical score, Day-28, in CIA Arthritis Model for the input compound. Input: C=CC(=O)N1CC2CC(n3nc(-c4ccc(C(=O)N(C)c5cc(C)ccn5)cc4)c4c(N)ncnc43)CC2C1 (centres unmarked)
98 ± 4.5%

* * *

target: recombinant purified human BTK (Homo sapiens); experiment: In vitro BTK kinase assay on ADP Glo platform; details: 2 hr room temperature, read-out: In-vitro BTK inhibitory activity: IC50
Sequence (Q06187 whole entry): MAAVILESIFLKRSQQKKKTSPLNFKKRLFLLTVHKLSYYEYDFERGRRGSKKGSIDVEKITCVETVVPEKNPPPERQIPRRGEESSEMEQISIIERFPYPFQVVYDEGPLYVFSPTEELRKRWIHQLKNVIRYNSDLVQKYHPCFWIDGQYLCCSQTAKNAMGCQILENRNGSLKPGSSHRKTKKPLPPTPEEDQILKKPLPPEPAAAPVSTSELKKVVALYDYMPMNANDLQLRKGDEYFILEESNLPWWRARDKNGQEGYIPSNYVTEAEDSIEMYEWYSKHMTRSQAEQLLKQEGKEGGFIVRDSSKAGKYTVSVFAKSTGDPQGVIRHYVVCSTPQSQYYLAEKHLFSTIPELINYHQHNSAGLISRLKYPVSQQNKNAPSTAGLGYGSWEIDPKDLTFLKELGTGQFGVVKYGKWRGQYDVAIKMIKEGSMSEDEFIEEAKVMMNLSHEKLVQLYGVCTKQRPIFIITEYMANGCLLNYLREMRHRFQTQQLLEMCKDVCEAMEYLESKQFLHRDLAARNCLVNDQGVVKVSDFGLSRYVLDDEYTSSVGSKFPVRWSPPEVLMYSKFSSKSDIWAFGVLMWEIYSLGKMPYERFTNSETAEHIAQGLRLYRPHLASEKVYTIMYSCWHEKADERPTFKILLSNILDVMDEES
measure: pIC50
Hey, just a heads up that pIC50 is the negative log base 10 of the concentration in molar.

Query: pIC50; subject: C=CC(=O)N1CC2CC(n3nc(-c4ccc(Oc5ccccn5)cc4)c4c(N)ncnc43)CC2C1 (stereo not shown)
8.70

Data request, read-out pIC50, for C=CC(=O)N1CC2CC(n3nc(-c4ccc5nc(C)sc5c4)c4c(N)ncnc43)CC2C1 (stereo not shown)
8.10

Quick one: pIC50 for C=CC(=O)N1CC2CC(n3nc(-c4ccc(-c5nnc(-c6ccccn6)o5)cc4)c4c(N)ncnc43)CC2C1 (stereo not shown) ?
8.96

Dear colleague, I am looking for the recorded pIC50 of the following compound: C=CC(=O)N1CC2CC(n3nc(-c4ccc(NC(=O)c5ccccn5)cc4)c4c(N)ncnc43)CC2C1 (stereo not shown)
8.40

Fill blank: measured pIC50 of the compound C=CC(=O)N1CC2CC(N3C(=O)N(c4ccc(Oc5ccccc5)cc4)C4C(N)=NC=NC43)CC2C1 (stereo not shown) is ____.
8.30

Can you look up the measured pIC50 of C=CC(=O)N1CC2CC(n3nc(-c4ccc(-c5nnc(-c6cnccn6)s5)cc4)c4c(N)ncnc43)CC2C1 (stereo not shown) for me?
9.00

Requested field: pIC50. Item: CN(C)C/C=C/C(=O)N1CC2CC(n3nc(-c4ccc(-c5nnc(-c6cnccn6)s5)cc4)c4c(N)ncnc43)CC2C1 (stereo not shown)
7.30

* * *

biological target: CYP 2C9 (Homo sapiens, UniProt P11712); construct: from tissue; host or cells: human liver microsomes; experiment: CYP inhibition in human liver microsomes, 2C9; type: in vitro ADME; settings: pH 7.4, @ 10 μM concn
Sequence (P11712 whole entry): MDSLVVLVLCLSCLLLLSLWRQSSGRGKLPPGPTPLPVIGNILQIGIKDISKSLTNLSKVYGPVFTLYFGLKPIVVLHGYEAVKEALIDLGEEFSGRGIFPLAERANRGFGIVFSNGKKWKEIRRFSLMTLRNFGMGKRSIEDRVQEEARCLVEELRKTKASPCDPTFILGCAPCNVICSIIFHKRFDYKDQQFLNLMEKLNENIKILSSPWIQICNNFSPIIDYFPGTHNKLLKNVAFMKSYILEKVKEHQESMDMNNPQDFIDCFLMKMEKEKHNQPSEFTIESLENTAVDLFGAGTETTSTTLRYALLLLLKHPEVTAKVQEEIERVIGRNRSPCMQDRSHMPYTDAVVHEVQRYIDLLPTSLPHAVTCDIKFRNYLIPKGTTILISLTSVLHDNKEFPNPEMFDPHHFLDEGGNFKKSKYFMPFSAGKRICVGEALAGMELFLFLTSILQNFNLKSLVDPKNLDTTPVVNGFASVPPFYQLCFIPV
measure: inhibition at 10 μM

Field request: inhibition at 10 μM | item: C=CC(=O)N1CC2CC(n3nc(-c4ccc(Oc5ccccn5)cc4)c4c(N)ncnc43)CC2C1 (stereo not drawn)
< 50%

Report inhibition at 10 μM for C=CC(=O)N1CC2CC(n3nc(-c4ccc5c(c4)OC(F)(F)O5)c4c(N)ncnc43)CC2C1 (stereo not drawn) please.
< 50%

May I ask what inhibition at 10 μM has been recorded for C=CC(=O)N1CC2CC(n3nc(-c4ccc(C(=O)Nc5cc(C)ccn5)cc4)c4c(N)ncnc43)CC2C1 (stereo not drawn) ?
< 50%

What does the data say about its inhibition at 10 μM? Entry: N#C/C(=C\C1CC1)C(=O)N1CC2CC(n3nc(-c4ccc(Oc5ccccc5)cc4)c4c(N)ncnc43)CC2C1 (stereo not drawn)
> 50%

Which measured inhibition at 10 μM value corresponds to C=CC(=O)N1CC2CC(n3nc(-c4ccc(/C(=N/c5cc(C)ccn5)OC)cc4)c4c(N)ncnc43)CC2C1 (stereo not drawn) ?
< 50%

So what does the record say about inhibition at 10 μM for C=CC(=O)N1CC2CC(n3nc(-c4ccc5c(c4)oc4ccccc45)c4c(N)ncnc43)CC2C1 (stereo not drawn) ?
< 50%

What measured inhibition at 10 μM goes with C=CC(=O)N1CC2CC(n3nc(-c4ccc(NC(=O)c5cnccn5)cc4)c4c(N)ncnc43)CC2C1 (stereo not drawn) ?
< 50%

inhibition at 10 μM for C=CC(=O)N1CC2CC(n3c(Br)c(-c4ccc(Oc5ccccc5)cc4)c4c(N)ncnc43)CC2C1 (stereo not drawn) ?
< 50%

inhibition at 10 μM for C=CC(=O)N1CC2CC(n3nc(-c4ccc5nc(NC(C)=O)sc5c4)c4c(N)ncnc43)CC2C1 (stereo not drawn) ?
> 50%

Could you share which inhibition at 10 μM value was measured for C=CC(=O)N1CC2CC(n3nc(-c4ccc(Oc5ccccc5)c(OC)c4)c4c(N)ncnc43)CC2C1 (stereo not drawn) ?
> 50%

State the recorded inhibition at 10 μM for this entry: C=CC(=O)N1CC2CC(n3nc(-c4ccc(Oc5cccnc5)cc4)c4c(N)ncnc43)CC2C1 (stereo not drawn)
< 50%

For C=CC(=O)N1CC2CC(n3nc(-c4ccc5nc(C)sc5c4)c4c(N)ncnc43)CC2C1 (stereo not drawn) , what is its reported inhibition at 10 μM?
< 50%

Given C=CC(=O)N1CC2CC(n3nc(-c4ccc5ncsc5c4)c4c(N)ncnc43)CC2C1 (stereo not drawn) , state its recorded inhibition at 10 μM.
< 50%

Entry under review: C=CC(=O)N1CC2CC(n3nc(-c4ccc5nc(OC)sc5c4)c4c(N)ncnc43)CC2C1 (stereo not drawn) . Reported inhibition at 10 μM?
< 50%

Which inhibition at 10 μM value belongs to CN(C)C/C=C/C(=O)N1CC2CC(n3nc(-c4ccc(C(=O)Nc5cc(C(F)(F)F)ccn5)cc4)c4c(N)ncnc43)CC2C1 (stereo not drawn) ?
> 50%

Each recorded value in this set is attributed to patent US9840509B2.
